These measurements were taken from patent US20230408517A1.

Would you mind telling me the reported percent blocking of each entry?
Target: SARS-CoV spike RBD (R306-F527), C-terminal 6-His (SARS-CoV, UniProt P59594 306-527)
Assay: flow cytometry, blocking of binding to hACE-2 cells
Kindly answer with a numeric value in %, unit omitted.

# input May I ask what percent blocking has been recorded for 1035752 (antibody, V domains shown) VH: QVQLQQPGAELVRPGASVKMSCKASGYTFTSHSIHWVKQTPGQGLEWIGAVYPGNGDTSYYQKFKGKATLTADKSSSTAYMHLSSLTSEDSAVYYCARDGYSDYYAMDCWGQGTSVTVSS VL: DIVMTQSQKFMSTSVGDRVSVTCKASQNVGTNVAWYQQKPGQSPKALIYSASYRYSGVPDRFTGSGSGTDFTLTINNVQSEDLAEYFCQQYNRYPWTFGGGTKLEIK ?
# output 0

# input May I ask what percent blocking has been recorded for 1035755 (antibody, V domains shown) VH: EVQLQQSGAELVRPGALVKLSCKASGFNIKDYYMHWVKQRPEQGLEWIGWIDPENGNSIYDPKFQGKASITADTSSNTAYLQLSSLTSEDTAVYYCATPSATSYFDYWGQGTTLTVSS VL: QIVLTQSPAIMSASPGEKVTISCSASSSVSYMYWYQQKPGSSPKPWIYRTSNLASGVPARFSGSGSGTSYSLTISSMEAEDAATYYCQQYHSYPYMYTFGGGTKLEIK ?
# output 0
